Assay Procedure: Human HepG2 cell viability assay in 384 well format
Assay type: toxicity, cell-based
Design: dose 125 nL, time 70.5 hour; concentration not given beside the values
Stated Conditions: HepG2 cells, read-out: Inhibition
Recorded Metric: cytotoxicity at 70.5 h (%)
One number for each entry, in %.

Check out these entries, answers already filled in.
COc1ccc(CN(C)c2nc3c(cnn3C)c(=O)[nH]2)c(OC)c1    18.3
CC(C)(C)n1cc(C#N)cc1NC(=O)CCS(=O)(=O)C1CCCC1    0.563
COCCOCC(=O)Nc1ccnn1-c1ccc(Cl)cc1    -0.967
O=C1Nc2ccccc2C1C1CCN(C(=O)C2CC2)CC1 (stereo not given)    -6.49
CCc1nc(CCNC(=O)NC2CC2)sc1C    5.49

// each molecule listed below needs its cytotoxicity at 70.5 h
1. O=C(NCc1cccs1)[C@H]1CC[C@@H]2[C@@H](CCN2Cc2ccoc2)O1
2. O=C(c1cn(-c2ccccc2Cl)nn1)N1CCCSCC1
3. N#Cc1ccccc1CN1C[C@@H]2CC[C@H](C1)N(Cc1cscn1)C2=O
4. CO[C@@H]1CCN(c2nnc(C)s2)C[C@@H]1Cc1cccc(C)c1

1. 2.32
2. -9.29
3. -11.1
4. -0.0343

----------
Assay Procedure: Human HepG2 cell viability assay in 384 well format
Assay type: toxicity, cell-based
Parameters: dose 125 nL, time 70.5 hour; concentration not given beside the values
Stated Conditions: HepG2 cells, read-out: Inhibition
Recorded Metric: cytotoxicity at 70.5 h (%)
Numbers only, in %.

Solved cases below.
CN(Cc1n[nH]c2c1CCCC2)c1cc(N2CCOCC2)nc(N)n1    -8.11
CC(Oc1cccc(Cl)c1)C(=O)Nc1cnn(CC(=O)NC2CC2)c1 (configuration not stated)    -17.2
Cc1cc(C)n(CC2CCCN2Cc2cccc(C#N)c2)n1 (configuration not stated)    -3.89
CC(C)c1nc(C2CCCN(C(=O)c3nccn4ccnc34)C2)no1 (configuration not stated)    -7.38
CCN(Cc1nccn1C)C(=O)c1ccc(NCC(C)C)nc1    -6.64

Could you report cytotoxicity at 70.5 h for every entry in the following list?
1. COc1ccccc1NC(=O)N(CCO)Cc1ccsc1
2. Cc1nc2ccccc2nc1CN1CCCC1c1c(C)nn(C)c1C (configuration not stated)

5.1
-4.26

----------
Assay Procedure: Human HepG2 cell viability assay in 384 well format
Type: toxicity, cell-based
Design: dose 125 nL, time 70.5 hour; concentration not given beside the values
Stated Conditions: HepG2 cells, read-out: Inhibition
Recorded Metric: cytotoxicity at 70.5 h (%)
Numbers only, in %.

Recorded cytotoxicity at 70.5 h, per entry:
COc1ccc(OCC(=O)NS(=O)(=O)c2ccc(Cl)s2)cc1    -8.59
COCCc1ncc(CNC2(c3ccc(Cl)cc3Cl)CC2)cn1    -1.55

Now for a further compound.
Look up cytotoxicity at 70.5 h for this compound: `CC(C)(C)CN1CCC[C@H]1c1nc(-c2cncnc2N)no1`
-0.753

----------
For each entry below, report its cytotoxicity at 70.5 h value.
Assay Procedure: Human HepG2 cell viability assay in 384 well format
Assay type: toxicity, cell-based
Set-up: dose 125 nL, time 70.5 hour; concentration not given beside the values
Stated Conditions: HepG2 cells, read-out: Inhibition
Numbers only, in %.

A selection of reference data follows.
CN1CC2(CCN(C(=O)c3ccc4c(=O)n(C)cnc4c3)CC2)CC1=O    -6.3
O=C(NCCn1ccc(-c2ccccn2)n1)c1ccncc1    11.3
CC(C)N1CCC(C(=O)N(C)C(C)c2ccon2)CC1 (stereo unspecified)    -0.598
CN(Cc1noc(C2CC2)n1)C1CCN(Cc2nc(C3CC3)no2)C1 (stereo unspecified)    0.524
O=C1CC(CNc2cncc(Cl)n2)c2ccccc2N1 (stereo unspecified)    -2.03

I need cytotoxicity at 70.5 h for every entry listed below, if you could help.
1. COc1nn(C)cc1C(=O)N1CCC(C)CC1
2. COCCN1C[C@@H]2COC[C@@H](CC(=O)NCc3cccnc3)[C@@H]2C1
3. CC(=O)Nc1ccc2nc(-c3nccn3CC(C)(C)CO)ccc2c1
4. Cc1cccc(C(=O)N2C[C@@H]3[C@H](CC(=O)Nc4cccnc4)[C@@H]3C2)n1

[26.1, -16.6, -11, -14.3]

Batch request: cytotoxicity at 70.5 h for each of the following molecules.
1. CC(C)(C)c1nc(CN(Cc2ccccc2Cl)C2CCCC2)no1
2. Cc1cccn2cc(CN3CCCC(c4ccn[nH]4)C3)nc12 (stereo unspecified)

-2.25
0.654

----------
Assay Procedure: Human HepG2 cell viability assay in 384 well format
Assay type: toxicity, cell-based
Parameters: dose 125 nL, time 70.5 hour; concentration not given beside the values
Stated Conditions: HepG2 cells, read-out: Inhibition
Recorded Metric: cytotoxicity at 70.5 h (%)
One number for each entry, in %.

A selection of reference data follows.
CCn1cc(CN2CCCN(C(=O)C3(C)CCOCC3)CC2)cn1    -10.2
O=S(=O)(NCc1ccccc1)N(Cc1ccccn1)CC1CCCO1 (stereo not drawn)    -2.95
O=C(CN1CCN(c2ccc3nncn3n2)CC1)NC1CCCCC1    -11.1
CN(CCc1ccccn1)[C@@H]1CCN(c2cc(C(N)=O)ccn2)C[C@H]1O    -3.34
COCCN(C)C[C@H]1C[C@H](CO)CN(C(=O)c2ccn(C)c(=O)c2)C1    -9.68
CC(C)CC(=O)NCCCc1cc(N)n(-c2ccccc2)n1    4.65

Quick batch: cytotoxicity at 70.5 h for everything below.
1. COCCN(C)C(=O)c1ccccc1-n1cccn1
2. CC(=O)N1CCC(c2ccnc(Nc3ccc(C)cn3)n2)C1 (stereo not drawn)
3. Cc1noc(C)c1CN(C)c1nccc(C(F)(F)F)n1
4. CN(C)C(=O)c1cc(S(=O)(=O)N2CCCC2Cn2ccnc2)cn1C (stereo not drawn)
5. COc1cnc(N2CC(N3CCOCC3)C2)nc1-c1ccnn1C

1. 5.05
2. 16
3. 4.31
4. 2.99
5. 6.03

Parameters: items (list). Returns: cytotoxicity at 70.5 h for each item.
1. CC(=O)N1CC(c2n[nH]c3ncccc23)C1
2. COCCC(=O)NC(C)(C(N)=O)c1cccc(Cl)c1 (stereo not drawn)
3. CCn1c(Cn2ccnc2)nnc1C1CCN(Cc2ccc(C)o2)CC1
4. O=C(O)c1cc(-c2ccc3c(c2)OCO3)cc(S(=O)(=O)NC2CC2)c1

[28.9, -3.41, 5.39, -11.6]

----------
Assay Procedure: Human HepG2 cell viability assay in 384 well format
Format: toxicity, cell-based
Parameters: dose 125 nL, time 70.5 hour; concentration not given beside the values
Stated Conditions: HepG2 cells, read-out: Inhibition
Recorded Metric: cytotoxicity at 70.5 h (%)
One number for each entry, in %.

Sample records with cytotoxicity at 70.5 h:
CCOC(=O)N1CCC2(CCNC2)C1 (centres undefined)    -5.56
CSCCC(NC(N)=O)C(=O)NCc1c(C)nn(-c2ccccc2)c1C (centres undefined)    -4.27
CN(C)C(=O)[C@@H]1C[C@@H]2CCN(C3CCOCC3)C[C@H]2O1    -4.53

Hi team, please reply with cytotoxicity at 70.5 h for each item in this list.
1. N#Cc1cn[nH]c1NCc1cc(Cl)cc(Cl)c1O
2. CCCNC(=O)C(C)n1nc(-c2ccc(C)o2)cc(N)c1=O (centres undefined)
3. CN1CC(C(=O)NCCc2ccc(F)c(Br)c2)CC1=O (centres undefined)
4. CCOc1ccnc(N2CCN(C(=O)CCc3ccncc3)CC2)n1
5. Cc1oncc1C(=O)N1CC[C@H]2[C@H]1CCN2S(C)(=O)=O
6. Cc1nnc(NC(=O)NCc2ccc(C)n2C)s1

1: 17.4; 2: -1.77; 3: -8.01; 4: 0.226; 5: -1.36; 6: 13.4

----------
Assay Procedure: Human HepG2 cell viability assay in 384 well format
Format: toxicity, cell-based
Design: dose 125 nL, time 70.5 hour; concentration not given beside the values
Stated Conditions: HepG2 cells, read-out: Inhibition
Recorded Metric: cytotoxicity at 70.5 h (%)
Answers are plain numbers, in %.

CCc1nc(C)c([C@H]2CN(C)C[C@@H]2C(=O)Nc2ccc3[nH]ncc3c2)[nH]1    -5.87
CCn1c(N)nc2cc(C(=O)N3CCN(c4ccncc4)CC3)cnc21    -2.2
CC(C)CC(=O)NCc1cccc(OCCN(C)C2CCOCC2)c1    -4.5
CCOc1cc(C(=O)N2CCCC(c3noc(CC)n3)C2)ccn1 (configuration not stated)    -2.83
COc1ccc(C2(C(=O)N3CC[C@@]4(O)CCNC[C@H]4C3)CCCC2)cc1    17.8

For each of the molecules below, note its cytotoxicity at 70.5 h.
1. COC(=O)c1cccc(C(=O)NCc2ccc3c(c2)CCCN3C)c1
2. CNc1cc(C2CCCN(Cc3ccccc3OCC(=O)O)C2)ccn1 (configuration not stated)
3. c1cc(C2CCN(c3ncnc4c3CCNCC4)CC2)ccn1
4. N#Cc1ccc(N2CCC3(CC2)CC(OCc2cccnc2)CO3)cc1 (configuration not stated)
5. CC(=O)c1cccc(-n2nc(C(C)=O)c(C(C)=O)c2C)c1

[-3.61, -8.72, -10.9, -1.15, -2.25]

Here are 2 molecules. What values of cytotoxicity at 70.5 h were reported for them?
1. Cc1cc(C)n(CC2CCCN2C(=O)CCCc2ccccn2)n1 (configuration not stated)
2. O=C(COC[C@H]1CC[C@H]2[C@H](CCN2c2ccccn2)O1)N1CCCC1

[-5.04, -111]

Batch: cytotoxicity at 70.5 h for all items listed.
1. O=C(c1ccco1)N1CC2(CCNCC2)c2cc(Cl)ccc21
2. CSCCNC(=O)c1ccc(OC2CCN(CC(C)(C)C)CC2)c(Cl)c1
3. c1cncc(C2=NOC3(CCN(Cc4c[nH]c5ccccc45)CC3)C2)c1

27.2
-7.8
5.06

Give cytotoxicity at 70.5 h for all molecules that follow.
1. CCOC1CC2(CCN(c3cnccn3)CC2)c2ccccc21 (configuration not stated)
2. CCOCCN1CCN(Cc2nc(C)no2)CC1CC (configuration not stated)
3. CCCn1nnnc1CSc1nccn1C
4. CN(CC(=O)Nc1cccnc1)CC1CCCN1c1cccnn1 (configuration not stated)
5. CCCn1c(C)c(CC(=O)NC(C)CO)c2c1CC(C)(C)CC2=O (configuration not stated)
6. CN(C)C1COC2(CCN(C(=O)c3cccnc3)CC2)C1 (configuration not stated)
7. Cc1ccc(NC2CCN(C(=O)c3cc(C)sc3C)CC2)nn1

-4.37
-2.4
-7.23
-7.79
9.89
-6.03
-11.8

Would you mind listing cytotoxicity at 70.5 h for each of the following molecules?
1. COc1c(C)cnc(CN(C)C2CCOC3(CCOCC3)C2)c1C (configuration not stated)
2. CC(=O)N1CCC(C(=O)N2CCCC(Cc3cccc(C)n3)C2)CC1 (configuration not stated)
3. CC(C(=O)NCC1CCN(c2ccncc2)CC1)S(C)(=O)=O (configuration not stated)
4. Cc1cc(NC(=O)CN2CCCC2c2noc(C(C)C)n2)no1 (configuration not stated)
5. CNc1cc(CNC(=O)c2ccccc2OC)nc(-c2ccncc2)n1
6. CC(C)(N)c1cn(C2CCN(C3CCSCC3)CC2)nn1
7. Cc1nc(C)n(CC2CCCN(Cc3ccc4c(c3)OCCO4)C2)n1 (configuration not stated)

-19.1
-4.08
-7.42
14.1
12.5
-6.81
-1.48

Please supply cytotoxicity at 70.5 h for each of the following items, keeping them in order.
1. C[C@H]1C[C@H]2CN(C(=O)C3=CCCCC3)CC[C@H]2O1
2. COC(=O)Nc1nc2c(s1)CN(C(=O)NCc1cccs1)CC2

1: -2.58; 2: -7.97

# get_value(readout='cytotoxicity at 70.5 h', item= Cc1cccc(NC(C)C(=O)Nc2nccs2)c1 (configuration not stated) )
-14.6
